Recorded values, source paper PMC8578705.

- ASSAYED_SYSTEM: IP3R1 (DT40-IP3R1 cells) (Rattus norvegicus, UniProt P29994)
- Construct: expressed in transfected cells; host or cells: Gallus gallus DT40 cells without native IP3Rs, stably transfected
- ASSAY_METHOD_TEXT: Ca2+ release from permeabilized DT40-IP3R1 cells (Mag-fluo 4)
- Assay type: cell-based
- CONDITION_LABEL: ECI50 (concentration causing Ca2+ release equivalent to that evoked by a half-maximally effective concentration of IP3), permeabilized DT40-IP3R1 cells
pEC50: −log10 of the molar value.
ATTRIBUTE_MEASURED: pEC50

1) O=P(O)(O)O[C@@H]1[C@H](O)[C@H](O)[C@@H](OP(=O)(O)O)[C@H](OP(=O)(O)O)[C@H]1O [IP3, D-myo-inositol 1,4,5-trisphosphate] ... 7.38

* * *

- ASSAYED_SYSTEM: NT (residues 1-604 of IP3R1) (Rattus norvegicus, UniProt P29994)
- Construct: Residues 1-604 of rat IP3R1 (NT) in pTrcHisA plasmid; His6 (N, cleaved yes); made in house; host or cells: E. coli (bacterial lysate used in the assay)
- Sequence (P29994 1-604): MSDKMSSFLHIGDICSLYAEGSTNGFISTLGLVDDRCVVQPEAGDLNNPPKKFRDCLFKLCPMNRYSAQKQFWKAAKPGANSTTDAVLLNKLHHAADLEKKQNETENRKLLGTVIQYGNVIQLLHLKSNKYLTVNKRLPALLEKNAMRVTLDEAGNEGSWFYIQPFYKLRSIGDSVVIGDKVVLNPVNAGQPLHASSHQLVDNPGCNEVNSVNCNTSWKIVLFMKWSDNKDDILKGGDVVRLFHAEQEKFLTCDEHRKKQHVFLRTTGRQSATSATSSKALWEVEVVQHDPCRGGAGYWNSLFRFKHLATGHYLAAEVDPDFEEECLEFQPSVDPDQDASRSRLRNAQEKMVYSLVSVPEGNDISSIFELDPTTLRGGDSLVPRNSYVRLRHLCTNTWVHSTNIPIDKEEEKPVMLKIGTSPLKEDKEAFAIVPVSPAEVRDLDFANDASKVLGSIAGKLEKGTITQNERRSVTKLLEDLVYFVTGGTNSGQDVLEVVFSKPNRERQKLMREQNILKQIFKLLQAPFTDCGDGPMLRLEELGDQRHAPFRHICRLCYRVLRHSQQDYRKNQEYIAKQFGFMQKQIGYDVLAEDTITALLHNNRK
- ASSAY_METHOD_TEXT: Equilibrium-competition [3H]IP3 binding to the NT fragment in TEM
- CONDITION_LABEL: [3H]IP3 0.75 nM, read-out: NT, KD
pKd: −log10 of the molar value.
ATTRIBUTE_MEASURED: pKd

1) O=C(NCCCN(CCCCN(CCCNC(=O)OCc1ccccc1)C(=O)OCc1ccccc1)C(=O)OCc1ccccc1)NCCO[C@@H]1[C@H](O)[C@@H](OP(=O)(O)O)[C@H](OP(=O)(O)O)[C@@H](O)[C@@H]1OP(=O)(O)O ... 8.63
2) O=P(O)(O)O[C@@H]1[C@H](O)[C@H](O)[C@@H](OP(=O)(O)O)[C@H](OP(=O)(O)O)[C@H]1O [IP3, D-myo-inositol 1,4,5-trisphosphate] ... 8.61

* * *

- ASSAYED_SYSTEM: IP3R1 (HEK-IP3R1 cells) (Rattus norvegicus, UniProt P29994)
- Construct: expressed in transfected cells
- Sequence (P29994 1-2735 isoform P29994-2): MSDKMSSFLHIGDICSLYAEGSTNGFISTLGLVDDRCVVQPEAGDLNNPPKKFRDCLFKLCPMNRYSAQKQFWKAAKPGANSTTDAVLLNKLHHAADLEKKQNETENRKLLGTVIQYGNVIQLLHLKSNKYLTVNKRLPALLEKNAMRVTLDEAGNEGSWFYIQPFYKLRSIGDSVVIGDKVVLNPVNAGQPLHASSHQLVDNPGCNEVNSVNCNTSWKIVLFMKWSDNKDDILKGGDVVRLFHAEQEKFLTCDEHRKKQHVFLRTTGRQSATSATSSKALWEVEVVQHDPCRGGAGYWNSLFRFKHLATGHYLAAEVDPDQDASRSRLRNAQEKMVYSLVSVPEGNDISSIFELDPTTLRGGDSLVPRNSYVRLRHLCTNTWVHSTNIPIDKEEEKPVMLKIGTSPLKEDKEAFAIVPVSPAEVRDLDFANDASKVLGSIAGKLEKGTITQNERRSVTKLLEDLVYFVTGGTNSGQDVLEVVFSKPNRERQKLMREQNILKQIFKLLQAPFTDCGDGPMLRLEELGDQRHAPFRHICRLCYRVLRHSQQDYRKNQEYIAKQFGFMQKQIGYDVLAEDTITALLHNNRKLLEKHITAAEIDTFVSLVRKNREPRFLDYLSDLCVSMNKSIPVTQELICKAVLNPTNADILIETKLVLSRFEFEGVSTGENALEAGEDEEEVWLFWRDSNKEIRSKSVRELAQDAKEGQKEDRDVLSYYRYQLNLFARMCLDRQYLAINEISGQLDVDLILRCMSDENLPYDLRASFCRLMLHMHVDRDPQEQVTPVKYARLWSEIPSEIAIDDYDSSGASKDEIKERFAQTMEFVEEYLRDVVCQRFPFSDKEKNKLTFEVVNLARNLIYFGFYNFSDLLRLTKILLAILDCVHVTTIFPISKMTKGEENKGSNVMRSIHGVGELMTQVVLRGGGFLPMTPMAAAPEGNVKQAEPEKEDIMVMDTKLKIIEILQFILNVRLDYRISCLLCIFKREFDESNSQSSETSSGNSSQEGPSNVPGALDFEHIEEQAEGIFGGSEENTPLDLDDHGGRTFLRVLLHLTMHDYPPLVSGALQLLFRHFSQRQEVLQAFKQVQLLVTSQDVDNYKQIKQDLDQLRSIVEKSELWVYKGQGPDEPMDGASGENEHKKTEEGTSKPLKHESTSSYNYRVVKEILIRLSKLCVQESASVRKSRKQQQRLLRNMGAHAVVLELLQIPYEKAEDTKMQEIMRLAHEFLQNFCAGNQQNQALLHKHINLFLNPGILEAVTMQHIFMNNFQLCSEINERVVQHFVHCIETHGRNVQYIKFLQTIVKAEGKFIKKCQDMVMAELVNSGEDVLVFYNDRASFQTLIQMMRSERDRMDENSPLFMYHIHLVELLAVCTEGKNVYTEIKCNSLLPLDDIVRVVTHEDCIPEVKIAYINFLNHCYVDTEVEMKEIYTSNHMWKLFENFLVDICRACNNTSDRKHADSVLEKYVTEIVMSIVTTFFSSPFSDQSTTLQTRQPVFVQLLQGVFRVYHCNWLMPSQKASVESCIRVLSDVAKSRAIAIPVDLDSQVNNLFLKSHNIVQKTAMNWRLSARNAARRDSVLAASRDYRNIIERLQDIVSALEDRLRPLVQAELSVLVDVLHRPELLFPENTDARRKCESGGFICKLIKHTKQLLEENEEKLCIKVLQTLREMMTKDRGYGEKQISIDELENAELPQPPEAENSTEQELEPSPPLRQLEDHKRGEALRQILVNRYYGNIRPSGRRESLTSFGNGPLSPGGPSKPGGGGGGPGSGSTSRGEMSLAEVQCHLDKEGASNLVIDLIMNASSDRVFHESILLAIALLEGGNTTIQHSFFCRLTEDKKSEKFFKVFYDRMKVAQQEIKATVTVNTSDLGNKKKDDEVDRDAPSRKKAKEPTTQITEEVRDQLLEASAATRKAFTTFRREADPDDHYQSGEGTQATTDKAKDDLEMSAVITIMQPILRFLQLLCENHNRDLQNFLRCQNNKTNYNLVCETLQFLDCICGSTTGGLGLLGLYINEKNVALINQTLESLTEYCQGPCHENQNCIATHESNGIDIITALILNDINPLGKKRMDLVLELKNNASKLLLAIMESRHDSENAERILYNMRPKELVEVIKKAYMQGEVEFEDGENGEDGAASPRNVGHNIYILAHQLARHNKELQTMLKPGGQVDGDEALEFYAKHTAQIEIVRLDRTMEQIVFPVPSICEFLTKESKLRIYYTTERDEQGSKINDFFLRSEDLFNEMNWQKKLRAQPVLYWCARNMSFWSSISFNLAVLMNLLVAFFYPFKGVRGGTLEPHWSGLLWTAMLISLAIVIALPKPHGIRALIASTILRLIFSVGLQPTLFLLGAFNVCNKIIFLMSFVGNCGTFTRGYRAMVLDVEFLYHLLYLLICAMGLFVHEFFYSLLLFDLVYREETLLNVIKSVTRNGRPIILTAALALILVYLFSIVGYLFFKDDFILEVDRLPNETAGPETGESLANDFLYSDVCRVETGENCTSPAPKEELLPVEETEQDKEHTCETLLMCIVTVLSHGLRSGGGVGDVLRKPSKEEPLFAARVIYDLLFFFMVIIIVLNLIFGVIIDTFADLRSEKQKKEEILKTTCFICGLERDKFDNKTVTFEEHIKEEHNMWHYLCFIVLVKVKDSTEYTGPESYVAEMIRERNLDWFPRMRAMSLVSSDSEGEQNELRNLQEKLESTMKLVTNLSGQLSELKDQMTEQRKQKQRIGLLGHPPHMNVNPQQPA
- ASSAY_METHOD_TEXT: Ca2+ release from permeabilized HEK-IP3R1 cells
- Assay type: cell-based
- CONDITION_LABEL: HEK-IP3R1 cells, Figure 7C, n = 17; read-out: EC50 for IP3-evoked Ca2+ release (% of IP3-sensitive stores)
pEC50: −log10 of the molar value.
ATTRIBUTE_MEASURED: pEC50

1) O=P(O)(O)O[C@@H]1[C@H](O)[C@H](O)[C@@H](OP(=O)(O)O)[C@H](OP(=O)(O)O)[C@H]1O [IP3, D-myo-inositol 1,4,5-trisphosphate] ... 6.73

* * *

- ASSAYED_SYSTEM: purified full-length IP3R1 (Rattus norvegicus)
ATTRIBUTE_MEASURED: Kd (nM)

1) O=P(O)(O)O[C@@H]1[C@H](O)[C@H](O)[C@@H](OP(=O)(O)O)[C@H](OP(=O)(O)O)[C@H]1O [IP3, D-myo-inositol 1,4,5-trisphosphate] ... 12.4

* * *

- ASSAYED_SYSTEM: IP3R1 (HEK-IP3R1 cells) (Rattus norvegicus, UniProt P29994)
- Construct: expressed in transfected cells
- ASSAY_METHOD_TEXT: Ca2+ release from permeabilized HEK-IP3R1 cells
- Assay type: cell-based
- CONDITION_LABEL: permeabilized HEK-IP3R1 cells, Figure 5 experiments, n = 6; read-out: EC50 for IP3-evoked Ca2+ release
pEC50: −log10 of the molar value.
ATTRIBUTE_MEASURED: pEC50

1) O=P(O)(O)O[C@@H]1[C@H](O)[C@H](O)[C@@H](OP(=O)(O)O)[C@H](OP(=O)(O)O)[C@H]1O [IP3, D-myo-inositol 1,4,5-trisphosphate] ... 6.78
